- assayedTarget: GppNHp-loaded KRASG12D (Homo sapiens, UniProt P01116, G12D)
- Construct: made in house; host or cells: Escherichia coli BL21-Gold (DE3)
- Sequence (P01116 1-169 isoform P01116-2 G12D): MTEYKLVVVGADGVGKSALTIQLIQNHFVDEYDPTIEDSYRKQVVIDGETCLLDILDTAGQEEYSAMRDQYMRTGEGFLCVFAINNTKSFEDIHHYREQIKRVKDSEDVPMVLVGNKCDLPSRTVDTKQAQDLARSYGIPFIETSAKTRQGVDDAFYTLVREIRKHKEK
- testName: Microscale thermophoresis, lysine NT-647-labeled GppNHp-loaded KRAS^G12D
- Type: binding
- testContext: read-out: dissociation constant KD

{"compoundStructure": "NC1(C(=O)NCCCn2cc(-c3cccc(F)c3)c3c(CN4CCN(CCOc5ccc(Cl)cc5)CC4)cccc32)CCNCC1", "unitName": "µM", "Kd": 73}

###

- assayedTarget: KRAS^G12D D38A (Homo sapiens, UniProt P01116, D38A/G12D)
- Construct: His6 (N); made in house
- Sequence (P01116 1-169 isoform P01116-2 G12D/D38A): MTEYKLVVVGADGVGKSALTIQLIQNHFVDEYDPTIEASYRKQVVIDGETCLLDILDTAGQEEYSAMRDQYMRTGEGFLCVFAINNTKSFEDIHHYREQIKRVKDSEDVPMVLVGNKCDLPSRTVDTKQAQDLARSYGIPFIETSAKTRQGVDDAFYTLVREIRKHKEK
- testName: Microscale thermophoresis on binding-site mutant KRAS^G12D D38A
- testContext: MST, 31MEW44, first experiment
pKd: −log10 of the molar value.

{"compoundStructure": "NC1(C(=O)NCCCn2cc(-c3ccc(OC(F)(F)F)cc3)c3cc(CN4CCN(Cc5c(Cl)cccc5Cl)CC4)ccc32)CCNCC1", "assayedTarget": "KRAS^G12D D38A (Homo sapiens, UniProt P01116, D38A/G12D)", "pKd": 5.72}

Source: patent US9926293B2
